target: Xanthine dehydrogenase/oxidase (Bos taurus, UniProt P80457); assay: Ratio of kcat to km for bovine xanthine oxidase at 25 uM; conditions: cattle
Sequence (P80457 whole entry): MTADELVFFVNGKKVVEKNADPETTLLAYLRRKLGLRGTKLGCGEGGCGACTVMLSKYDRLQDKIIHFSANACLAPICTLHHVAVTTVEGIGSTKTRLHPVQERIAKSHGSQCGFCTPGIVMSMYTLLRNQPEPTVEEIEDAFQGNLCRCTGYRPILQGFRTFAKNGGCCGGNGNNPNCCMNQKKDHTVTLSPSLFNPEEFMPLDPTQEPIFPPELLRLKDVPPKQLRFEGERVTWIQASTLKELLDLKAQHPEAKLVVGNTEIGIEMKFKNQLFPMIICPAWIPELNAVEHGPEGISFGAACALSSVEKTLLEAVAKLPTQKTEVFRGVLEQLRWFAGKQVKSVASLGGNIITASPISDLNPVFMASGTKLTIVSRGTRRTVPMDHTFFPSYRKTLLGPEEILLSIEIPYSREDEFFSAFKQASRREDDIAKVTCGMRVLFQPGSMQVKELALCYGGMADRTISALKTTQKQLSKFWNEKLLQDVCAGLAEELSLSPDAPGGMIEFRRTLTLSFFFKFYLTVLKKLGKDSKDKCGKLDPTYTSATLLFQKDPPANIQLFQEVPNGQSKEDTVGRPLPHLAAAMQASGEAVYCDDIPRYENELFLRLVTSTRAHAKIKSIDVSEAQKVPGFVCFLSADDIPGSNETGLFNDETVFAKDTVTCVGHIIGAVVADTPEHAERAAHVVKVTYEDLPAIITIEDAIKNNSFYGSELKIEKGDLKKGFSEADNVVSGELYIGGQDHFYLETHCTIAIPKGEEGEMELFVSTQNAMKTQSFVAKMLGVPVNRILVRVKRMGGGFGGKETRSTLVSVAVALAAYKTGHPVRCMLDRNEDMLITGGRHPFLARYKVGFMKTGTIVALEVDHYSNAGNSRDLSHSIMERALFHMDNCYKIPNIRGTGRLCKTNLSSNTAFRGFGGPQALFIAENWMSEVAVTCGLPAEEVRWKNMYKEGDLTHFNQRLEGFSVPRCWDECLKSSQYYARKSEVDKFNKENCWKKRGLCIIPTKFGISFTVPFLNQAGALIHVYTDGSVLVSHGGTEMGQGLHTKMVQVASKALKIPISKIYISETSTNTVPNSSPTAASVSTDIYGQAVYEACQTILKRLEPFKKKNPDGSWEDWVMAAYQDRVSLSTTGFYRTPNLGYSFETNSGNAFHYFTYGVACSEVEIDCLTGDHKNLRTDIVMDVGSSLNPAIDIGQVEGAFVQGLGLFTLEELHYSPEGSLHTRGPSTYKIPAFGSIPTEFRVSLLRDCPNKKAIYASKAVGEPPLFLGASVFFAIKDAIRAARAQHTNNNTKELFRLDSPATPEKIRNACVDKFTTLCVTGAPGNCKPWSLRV
Reported Kcat/Km values for a set of compounds
Entry rule: numbers only, all in M⁻¹ s⁻¹.

Use these answered entries as a reference point.
COMPOUND: COc1cc(/C=C/C(=O)CC(=O)/C=C/c2ccc(O)c(OC)c2)ccc1O
ASSAY TARGET: Xanthine dehydrogenase/oxidase (Bos taurus, UniProt P80457)
RESULT NUMBER: 6.5e+06

COMPOUND: Oc1ncnc2[nH]ncc12
ASSAY TARGET: Xanthine dehydrogenase/oxidase (Bos taurus, UniProt P80457)
RESULT NUMBER: 150000

COMPOUND: O=c1c(O)c(-c2ccc(O)c(O)c2)oc2cc(O)cc(O)c12
ASSAY TARGET: Xanthine dehydrogenase/oxidase (Bos taurus, UniProt P80457)
RESULT NUMBER: 10000

COMPOUND: COc1cc(C2Oc3cc([C@H]4Oc5cc(O)cc(O)c5C(=O)[C@@H]4O)ccc3OC2CO)ccc1O (stereo not given in full)
ASSAY TARGET: Xanthine dehydrogenase/oxidase (Bos taurus, UniProt P80457)
RESULT NUMBER: 130000

## Input Fill in the blank: the reported Kcat/Km of `O=c1cc(-c2ccc(O)c(O)c2)oc2cc(O)cc(O)c12` is ____.
## Output 30000

---

biological target: Xanthine dehydrogenase/oxidase (Bos taurus, UniProt P80457); assay: Inhibition of bovine xanthine oxidase assessed as reduction of cytochrome c at 10 uM; conditions: cattle
Reported Activity values for a set of compounds
Entry rule: numbers only, all in nM/s.

Use these answered entries as a reference point.
COMPOUND: Oc1ncnc2[nH]ncc12 [ALLOPURINOL]
PROPERTY: Activity
UOM: nM/s
RESULT NUMBER: 140
--
COMPOUND: COc1cc(/C=C/C(=O)CC(=O)/C=C/c2ccc(O)c(OC)c2)ccc1O [CURCUMIN]
PROPERTY: Activity
UOM: nM/s
RESULT NUMBER: 160
--
COMPOUND: COc1cc(C2Oc3cc([C@H]4Oc5cc(O)cc(O)c5C(=O)[C@@H]4O)ccc3OC2CO)ccc1O (stereo not given in full) [SILIBININ]
PROPERTY: Activity
UOM: nM/s
RESULT NUMBER: 160
--
COMPOUND: O=c1cc(-c2ccc(O)c(O)c2)oc2cc(O)cc(O)c12 [LUTEOLIN]
PROPERTY: Activity
UOM: nM/s
RESULT NUMBER: 100

Here is the next item to consider.
## Input So what Activity did O=c1c(O)c(-c2ccc(O)c(O)c2)oc2cc(O)cc(O)c12 [QUERCETIN] get with Xanthine dehydrogenase/oxidase (Bos taurus, UniProt P80457)?
## Output 140

---

target: Xanthine dehydrogenase/oxidase (Bos taurus)
PROPERTY: Ki
Give me the value, and tack the unit on after it.

## Input So what Ki did `O=c1cc(-c2ccc(O)c(O)c2)oc2cc(O)cc(O)c12` get with Xanthine dehydrogenase/oxidase (Bos taurus)?
## Output 1900 nM

---

molecular target: Xanthine dehydrogenase/oxidase (Bos taurus); test: Activity at bovine xanthine oxidase at 25 uM; conditions: cattle
# note: exactly 4 s⁻¹ is not below, so it is condition not met; use condition met for Kcat strictly under it

COMPOUND: O=c1c(O)c(-c2ccc(O)c(O)c2)oc2cc(O)cc(O)c12
CLASS: condition met

COMPOUND: Oc1ncnc2[nH]ncc12
CLASS: condition not met

COMPOUND: O=c1cc(-c2ccc(O)c(O)c2)oc2cc(O)cc(O)c12
CLASS: condition not met

COMPOUND: COc1cc(C2Oc3cc([C@H]4Oc5cc(O)cc(O)c5C(=O)[C@@H]4O)ccc3OC2CO)ccc1O (stereo not given in full)
CLASS: condition not met

API: the following record is the query input.
## Input Kcat strictly < 4 s⁻¹ for this compound? `COc1cc(/C=C/C(=O)CC(=O)/C=C/c2ccc(O)c(OC)c2)ccc1O`
## Output condition not met
